Test system: mTORC1 / Akt activation
Test: Western blot of S6RP, 4EBP1 and Akt phosphorylation, KO99L cells
Assay type: cell-based, murine
Settings: 2.0-24 h; COMPOUND-JP 10.0 μM; MK-2206 5.0 μM; KU0063794 5.0 μM; rapamycin 10.0 nM; L-Asp, Erw 2.5 units/ml; velcade at 24 h
reported_property: Akt phosphorylation (serine 473) / activation

[
  {
    "compound": "NC1(c2ccc(-c3nc4ccn5c(=O)[nH]nc5c4cc3-c3ccccc3)cc2)CCC1 [MK-2206, reference compound]",
    "value_measured": "completely block"
  },
  {
    "compound": "COc1ccc(-c2ccc3c(N4CCOCC4)nc(N4C[C@@H](C)O[C@@H](C)C4)nc3n2)cc1CO [KU0063794, reference compound]",
    "value_measured": "completely block"
  }
]

----------
System: mTORC1 / Akt activation
Experiment: Western blot of S6RP, 4EBP1 and Akt phosphorylation, KO99L cells
Assay type: cell-based, murine
Details: 2.0-24 h; COMPOUND-JP 10.0 μM; MK-2206 5.0 μM; KU0063794 5.0 μM; rapamycin 10.0 nM; L-Asp, Erw 2.5 units/ml; velcade at 24 h

[
  {
    "compound": "COc1ccc(-c2ccc3c(N4CCOCC4)nc(N4C[C@@H](C)O[C@@H](C)C4)nc3n2)cc1CO [KU0063794, reference compound]",
    "S6RP phosphorylation (mTORC1 activation)": "completely block"
  },
  {
    "compound": "NC1(c2ccc(-c3nc4ccn5c(=O)[nH]nc5c4cc3-c3ccccc3)cc2)CCC1 [MK-2206, reference compound]",
    "S6RP phosphorylation (mTORC1 activation)": "completely block"
  }
]
